Data origin, for the record: patent US9567345B2

TARGET: CDK7/CycH/Mat1 (Homo sapiens)
ASSAY_METHOD_TEXT: CDK7 Enzymatic Activity Assay (Lance Kinase Activity Assay, FRET)
Assay type: biochemical
SETTINGS: CDK7/CycH/Mat1, 25 μM ATP final; class ranges; read-out: CDK7: IC50 [nM] for CDK7 inhibition
Procedure: This protocol describes how the Lance Kinase Activity Assay was performed to determine IC50 values of compounds of general formula (I) against CDK/Cyclin complexes. […] It is detected by using a specific EU-labeled anti-phospho peptide antibody. […] For positive controls, 2 μl of DMSO working solution were mixed with 6 μl CDK7/CycH/Mat1/substrate working solution and 2 μl ATP working solution. Positive and negative controls were calculated from at least 8 different wells. […]
Each entry below lists one item and its recorded IC50 value.

Worked set:
CC(C)c1cnn2c(NCc3ccccc3Oc3ccccn3)nc(O[C@@H]3CCCNC3)nc12 [(VII-098)]
10 to 25 nM
CNC1CCN(c2nc(NCc3ccccc3-n3cccn3)n3ncc(C(C)C)c3n2)CC1 [(VIII-25)]
< 5 nM
CC(C)c1cnn2c(NCc3ccccc3C(F)(F)F)nc(OC3CCN(C)CC3)nc12 [(VII-58)]
10 to 25 nM

Look up and report measured IC50 (CDK7/CycH/Mat1 (Homo sapiens)) for the following molecule: CC(C)c1cnn2c(N[C@@H](C)c3ccccc3Cl)nc(O[C@@H]3CCCNC3)nc12 [(VII-28)]
< 5 nM

Determine reported IC50 for CC(C)c1cnn2c(NCc3ccccc3-n3cccn3)nc(N3CCCC4(CCCCN4)C3)nc12 (centres unmarked) [(VIII-15)] ; test system: CDK7/CycH/Mat1 (Homo sapiens).
10 to 25 nM

Report value: IC50, system: CDK7/CycH/Mat1 (Homo sapiens), molecule: CC(C)c1cnn2c(NCc3ccccc3-n3cccn3)nc(N3CCCC(N)C3)nc12 (centres unmarked) [(VIII-053)]
> 25 nM

Recall the reported IC50 of CC(C)c1cnn2c(NCc3ccccc3S(=O)(=O)N(C)C)nc(N3CCC4(CCCN4)CC3)nc12 [(VIII-35)] on CDK7/CycH/Mat1 (Homo sapiens) and write it down.
< 5 nM

Provide measured IC50 on CDK7/CycH/Mat1 (Homo sapiens) for CC(C)c1cnn2c(NCc3ccccc3-n3cccn3)nc(C(=O)NCC3CCCNC3)nc12 (centres unmarked) [(XII-4)] please.
< 5 nM

GET IC50 where system = CDK7/CycH/Mat1 (Homo sapiens) and item = CNS(=O)(=O)c1ccccc1CNc1nc(O[C@@H]2CCCNC2)nc2c(C(C)C)cnn12 [(VII-104)]
< 5 nM

Report IC50 from CDK7/CycH/Mat1 (Homo sapiens) testing of CC(C)c1cnn2c(NCc3ccccc3NC(=O)NC3CCCCC3)nc(O[C@@H]3CCCNC3)nc12 [(VII-112)]
5 to 10 nM

Lab note: CDK7/CycH/Mat1 (Homo sapiens) assay, enter IC50 for CC(C)c1cnn2c(NCc3ccccc3-n3cccn3)nc(N3CCC4(CCCNC4)C3)nc12 (centres unmarked) [(VIII-27)] here
5 to 10 nM

Print CDK7/CycH/Mat1 (Homo sapiens) IC50 for COc1ccccc1[C@H](C)Nc1nc(OC2CCNCC2)nc2c(C(C)C)cnn12 [(VII-15)] .
< 5 nM

###

TARGET: CDK9/Cyclin T1 (Homo sapiens)
Sequence (P50750 whole entry): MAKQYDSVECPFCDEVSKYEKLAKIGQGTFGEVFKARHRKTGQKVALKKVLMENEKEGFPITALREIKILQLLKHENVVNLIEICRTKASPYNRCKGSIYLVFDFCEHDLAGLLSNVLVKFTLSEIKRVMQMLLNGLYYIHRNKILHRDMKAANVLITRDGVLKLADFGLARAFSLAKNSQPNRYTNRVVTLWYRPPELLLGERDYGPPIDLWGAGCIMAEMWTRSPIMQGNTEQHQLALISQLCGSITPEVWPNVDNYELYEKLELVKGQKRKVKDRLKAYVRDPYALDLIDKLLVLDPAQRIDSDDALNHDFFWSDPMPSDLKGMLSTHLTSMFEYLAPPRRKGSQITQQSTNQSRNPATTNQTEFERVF
Sequence (O60563 whole entry partner): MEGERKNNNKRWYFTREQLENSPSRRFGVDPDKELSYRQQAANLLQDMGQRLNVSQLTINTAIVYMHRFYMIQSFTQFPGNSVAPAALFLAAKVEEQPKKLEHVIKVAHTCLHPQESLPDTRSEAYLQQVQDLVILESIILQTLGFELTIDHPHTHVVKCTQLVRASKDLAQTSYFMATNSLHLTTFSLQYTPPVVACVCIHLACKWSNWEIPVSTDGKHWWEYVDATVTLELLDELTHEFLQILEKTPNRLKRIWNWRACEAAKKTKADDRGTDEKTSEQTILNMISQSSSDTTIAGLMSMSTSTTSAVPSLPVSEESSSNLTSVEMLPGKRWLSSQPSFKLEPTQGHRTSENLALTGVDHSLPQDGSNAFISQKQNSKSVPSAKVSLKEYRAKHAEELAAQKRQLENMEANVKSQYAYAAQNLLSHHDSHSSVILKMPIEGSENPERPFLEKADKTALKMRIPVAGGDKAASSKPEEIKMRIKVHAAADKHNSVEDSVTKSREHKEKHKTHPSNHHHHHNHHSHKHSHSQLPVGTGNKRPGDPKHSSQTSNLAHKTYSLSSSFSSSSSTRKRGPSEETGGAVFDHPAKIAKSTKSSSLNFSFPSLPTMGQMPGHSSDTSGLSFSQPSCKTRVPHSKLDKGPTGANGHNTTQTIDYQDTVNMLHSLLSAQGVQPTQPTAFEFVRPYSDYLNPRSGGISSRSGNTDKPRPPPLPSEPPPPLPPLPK
ASSAY_METHOD_TEXT: CDK9 Enzymatic Activity Assay (Lance Kinase Activity Assay, FRET)
Type: biochemical
SETTINGS: Table 5B, class symbols per IC50 [nM] ranges of b581; read-out: CDK9: Selectivity of CDK7 inhibition over CDK9 inhibition
PARAMETER_MEASURED: IC50

Before answering, review these 5 worked examples.
CC(C)c1cnn2c(NCc3ccccc3-n3cccn3)nc(N3CCCC4(CCCNC4)C3)nc12 (centres unmarked)
> 2500 nM
CC(C)c1cnn2c(NCc3ccccc3-n3ccnc3)nc(OC3CCNCC3)nc12
500 to 2500 nM
CC(C)Oc1ccccc1CNc1nc(OC2CCN(C)CC2)nc2c(C(C)C)cnn12
> 2500 nM
CC(C)c1cnn2c(NCc3ccccc3C3=CCCCC3)nc(O[C@@H]3CCCNC3)nc12
> 2500 nM
CC(C)c1cnn2c(NCc3ccccc3-n3cccn3)nc(O[C@@H]3CCCNC3)nc12
50 to 500 nM

Answer with IC50 of `CC(C)c1cnn2c(NCc3cc(F)ccc3-n3cccn3)nc(O[C@@H]3CCCNC3)nc12` measured for CDK9/Cyclin T1 (Homo sapiens).
50 to 500 nM

Fetch value of IC50 on CDK9/Cyclin T1 (Homo sapiens) for `CC(C)c1cnn2c(NCc3ccccc3NC(=O)NC3CCCCC3)nc(O[C@@H]3CCCNC3)nc12` .
> 2500 nM

###

TARGET: CDK2/CycA (Homo sapiens, UniProt P24941)
Construct: purchased Proqinase
ASSAY_METHOD_TEXT: CDK2 Enzymatic Activity Assay (Lance Kinase Activity Assay, FRET)
Type: biochemical
SETTINGS: Table 5B, class symbols per IC50 [nM] ranges of b581; read-out: CDK2: Selectivity of CDK7 inhibition over CDK2 inhibition
IC50: recorded values

The following compounds have reported results that may help.
CC(C)Oc1ccccc1CNc1nc(O[C@@H]2CCCNC2)nc2c(C(C)C)cnn12
50 to 500 nM
CC(C)c1cnn2c(NCc3cccc(F)c3-n3cccn3)nc(O[C@@H]3CCCNC3)nc12
< 50 nM
CC(C)c1cnn2c(NCc3ccccc3-n3cccn3)nc(S[C@@H]3CCCNC3)nc12
50 to 500 nM
CC(C)c1cnn2c(NCc3ccccc3-n3cccn3)nc(N(C)CCN3CCCC3)nc12
> 2500 nM
CC(C)c1cnn2c(NCc3ccccc3-n3cccn3)nc(NC3CCCNC3)nc12 (centres unmarked)
50 to 500 nM

Give recorded IC50. CC(C)c1cnn2c(NCc3ccccc3-n3cccn3)nc(N3CCCC(N)C3)nc12 (centres unmarked)
> 2500 nM

Tell me measured IC50 for `CC(C)c1cnn2c(NCc3ccccc3-n3cccn3)nc(C(=O)N(C)CCN3CCCC3)nc12` please.
> 2500 nM

Give a short answer stating reported IC50 for `CC(C)c1cnn2c(NCc3ccccc3-n3cccn3)nc(N3CC(N4CCC(F)(F)C4)C3)nc12` .
> 2500 nM

Give recorded IC50. `CSc1ccccc1CNc1nc(O[C@@H]2CCCNC2)nc2c(C(C)C)cnn12`
50 to 500 nM

Look up and state reported IC50 for `CC(C)c1cnn2c(NCc3ccccc3-c3cccs3)nc(O[C@@H]3CCNC3)nc12`
50 to 500 nM

###

TARGET: CDK7/CycH/Mat1 (Homo sapiens)
ASSAY_METHOD_TEXT: CDK7 Enzymatic Activity Assay (Lance Kinase Activity Assay, FRET)
Format: biochemical
SETTINGS: CDK7/CycH/Mat1, 25 μM ATP final; class ranges; read-out: CDK7: IC50 [nM] for CDK7 inhibition
PARAMETER_MEASURED: IC50

Worked examples follow.
Cc1nccn1-c1ccccc1CNc1nc(O[C@@H]2CCNC2)nc2c(C(C)C)cnn12 [(VII-25)]
< 5 nM
CC(C)c1cnn2c(NCc3ccccc3-n3cccn3)nc(C(=O)N(C)CCN3CCOCC3)nc12 [(XII-06)]
> 25 nM
CC(C)c1cnn2c(NCc3ccccc3-n3cncn3)nc(OC3CCNCC3)nc12 [(VII-22)]
< 5 nM

As a next step, examine the molecule that follows.
Give a short answer stating reported IC50 for CC(C)c1cnn2c(NCc3ccccc3-n3cccn3)nc(N3CC4(CNC4)C3)nc12 [(VIII-10)] .
5 to 10 nM

###

TARGET: CDK7/CycH/Mat1 (Homo sapiens, UniProt P50613)
Sequence (P50613 whole entry): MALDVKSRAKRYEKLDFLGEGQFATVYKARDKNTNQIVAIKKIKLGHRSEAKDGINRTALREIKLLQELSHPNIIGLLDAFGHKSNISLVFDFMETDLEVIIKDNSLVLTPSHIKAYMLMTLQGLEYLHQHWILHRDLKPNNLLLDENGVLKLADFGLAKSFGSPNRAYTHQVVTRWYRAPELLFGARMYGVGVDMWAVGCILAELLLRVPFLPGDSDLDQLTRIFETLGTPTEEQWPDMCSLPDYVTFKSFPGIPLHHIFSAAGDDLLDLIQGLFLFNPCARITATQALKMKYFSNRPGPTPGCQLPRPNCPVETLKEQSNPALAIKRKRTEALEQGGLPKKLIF
ASSAY_METHOD_TEXT: CDK7 Enzymatic Activity Assay (Lance Kinase Activity Assay, FRET)
Type: biochemical
SETTINGS: CDK7/CycH/Mat1, 25 μM ATP final; class ranges; read-out: CDK7: IC50 [nM] for CDK7 inhibition
Procedure: This protocol describes how the Lance Kinase Activity Assay was performed to determine IC50 values of compounds of general formula (I) against CDK/Cyclin complexes. […] It is detected by using a specific EU-labeled anti-phospho peptide antibody. […] For positive controls, 2 μl of DMSO working solution were mixed with 6 μl CDK7/CycH/Mat1/substrate working solution and 2 μl ATP working solution. Positive and negative controls were calculated from at least 8 different wells. […]
PARAMETER_MEASURED: IC50

Solved cases (2 shown):
CC(C)c1cnn2c(NCc3ccccc3-n3cccn3)nc(N3CCC34CCCNC4)nc12 (centres unmarked) [(VIII-04)]
10 to 25 nM
CC(C)c1cnn2c(NCc3ccccc3-n3cccn3)nc(N3CC4(CCCNC4)C3)nc12 [(VIII-05)]
< 5 nM

Give reported IC50 value for CC(C)c1cnn2c(NCc3ccccc3-n3ccnc3)nc(O[C@@H]3CCCNC3)nc12 [(VII-26)]
< 5 nM

Consider the molecule CC(C)c1cnn2c(NCc3ccccc3-n3cncn3)nc(O[C@@H]3CCNC3)nc12 [(VII-21)] and give its recorded IC50.
< 5 nM

Item CC(C)c1cnn2c(NCc3ccccc3-n3cccn3)nc(O[C@@H]3CCNC3)nc12 [(VII-02)] : provide IC50
< 5 nM

Give the measured IC50 for CC(C)c1cnn2c(NCc3ccccc3-n3cccn3)nc(OC3CC4(CNC4)C3)nc12 [(VII-04)]
< 5 nM
